Every entry's value here was drawn from ChEMBL document CHEMBL3132747.

target: Cyclin-dependent kinase 2 (Homo sapiens, UniProt P24941)
measured parameter: IC50
Be sure to follow the number with its unit.

Test item COc1cc(Nc2nccc(-c3ccc(Cl)cc3)n2)cc(OC)c1OC ; Cyclin-dependent kinase 2 (Homo sapiens, UniProt P24941); reported IC50 was 18.8 µM

* * *

biological target: Phosphatidylinositol 4,5-bisphosphate 3-kinase catalytic subunit gamma isoform (Homo sapiens, UniProt P48736); assay: Inhibition of human PI3Kgamma; settings: read-out: IC50
Sequence (P48736 whole entry, canonical isoform): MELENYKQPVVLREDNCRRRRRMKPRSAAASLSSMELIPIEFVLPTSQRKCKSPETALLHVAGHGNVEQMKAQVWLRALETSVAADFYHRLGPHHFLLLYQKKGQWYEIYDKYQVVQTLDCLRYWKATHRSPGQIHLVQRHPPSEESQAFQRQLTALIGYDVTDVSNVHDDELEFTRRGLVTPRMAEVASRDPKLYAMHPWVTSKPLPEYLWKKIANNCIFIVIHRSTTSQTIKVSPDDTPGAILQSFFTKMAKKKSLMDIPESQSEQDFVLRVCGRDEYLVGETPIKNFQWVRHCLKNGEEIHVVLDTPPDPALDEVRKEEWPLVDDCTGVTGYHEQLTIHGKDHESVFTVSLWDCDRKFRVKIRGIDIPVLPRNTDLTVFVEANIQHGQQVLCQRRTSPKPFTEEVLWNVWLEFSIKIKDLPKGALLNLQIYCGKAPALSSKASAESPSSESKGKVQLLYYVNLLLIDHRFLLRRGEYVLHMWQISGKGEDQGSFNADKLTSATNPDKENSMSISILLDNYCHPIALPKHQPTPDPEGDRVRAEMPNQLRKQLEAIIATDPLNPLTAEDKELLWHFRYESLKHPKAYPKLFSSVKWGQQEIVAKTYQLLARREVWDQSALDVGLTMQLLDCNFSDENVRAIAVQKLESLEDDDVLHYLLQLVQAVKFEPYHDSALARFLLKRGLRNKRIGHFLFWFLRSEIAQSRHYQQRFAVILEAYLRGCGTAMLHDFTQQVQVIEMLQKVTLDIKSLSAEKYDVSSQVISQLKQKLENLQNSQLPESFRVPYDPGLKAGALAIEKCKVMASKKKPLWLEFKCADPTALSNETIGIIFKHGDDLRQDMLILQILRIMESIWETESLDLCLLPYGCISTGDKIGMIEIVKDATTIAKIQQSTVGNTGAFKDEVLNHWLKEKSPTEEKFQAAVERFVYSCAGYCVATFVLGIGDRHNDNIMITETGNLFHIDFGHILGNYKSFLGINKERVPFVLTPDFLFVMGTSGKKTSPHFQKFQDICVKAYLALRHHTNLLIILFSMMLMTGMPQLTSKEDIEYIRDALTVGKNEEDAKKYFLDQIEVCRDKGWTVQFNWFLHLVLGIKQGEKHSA
In this section, each of the molecules is paired with its reported IC50.
Expressed in nM, but write only the number.

Example molecules with recorded IC50:
Looking up COc1ccc(-c2ccnc(Nc3ccc(Cl)cc3Cl)n2)cc1 , I see its IC50 listed as 235

Looking up O=[N+]([O-])c1ccc(Nc2nccc(-c3ccc(Cl)c(Cl)c3)n2)cc1 , I see its IC50 listed as 154

Here's the next entry for you.
Looking up Clc1ccc(Nc2nccc(-c3ccc(Br)cc3)n2)c(Cl)c1 , I see its IC50 listed as 231
